# target-desc: Cytochrome P450 2D6 (Homo sapiens, UniProt P10635)
# Sequence (P10635 whole entry): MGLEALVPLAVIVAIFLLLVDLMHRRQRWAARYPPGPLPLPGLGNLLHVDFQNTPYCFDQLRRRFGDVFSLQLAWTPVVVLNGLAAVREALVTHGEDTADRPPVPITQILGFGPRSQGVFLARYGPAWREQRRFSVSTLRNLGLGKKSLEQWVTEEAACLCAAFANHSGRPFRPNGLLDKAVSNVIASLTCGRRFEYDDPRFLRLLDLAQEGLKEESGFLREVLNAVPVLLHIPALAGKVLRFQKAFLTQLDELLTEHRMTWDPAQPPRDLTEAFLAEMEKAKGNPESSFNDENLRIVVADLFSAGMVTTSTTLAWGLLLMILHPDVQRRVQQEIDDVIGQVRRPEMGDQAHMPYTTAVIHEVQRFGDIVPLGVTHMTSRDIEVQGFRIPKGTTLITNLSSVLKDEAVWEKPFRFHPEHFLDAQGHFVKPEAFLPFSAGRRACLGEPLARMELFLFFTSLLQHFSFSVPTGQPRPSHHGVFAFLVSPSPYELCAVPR
pIC50: −log10 of the molar value.
endpoint-name: pIC50

Field pIC50 (system: Cytochrome P450 2D6 (Homo sapiens, UniProt P10635)) for entry Cc1c(-c2cn(C(C)C)c(=O)c3ccccc23)c2cc(F)ccc2n1CC(=O)O = < 4.00

---

# method: Metabolic clearance in monkey hepatocytes measured per 10^6 cells
# Type: ADME, cell-based, Macaca mulatta, Hepatocyte
# assay-context: rhesus monkey, read-out: CLH
endpoint-name: hepatocyte CLint

For reference, reported hepatocyte CLint for Cc1c(Cc2ccc(=O)n(Cc3ccc(F)cc3F)n2)c2cc(F)ccc2n1CC(=O)O stands at < 5 µL/min/1e6 cells
